Protocol Description: Investigation of sedation side effects (autonomic activity, movement distance)
Type: in vivo, mice
Applied Conditions: mouse, in vivo, ip; C57BL/6j mice, intraperitoneal, 45 min after administration
Measured ED50 at 45 min, listed per entry for reference.
Measurement Type: ED50 at 45 min (mg/kg)

{"columns": ["Molecule", "Measurement Type", "Readout Value"],
 "data": [
  ["CC(C)COc1ccc(CNC(=O)N(Cc2ccc(F)cc2)C2CCN(C)CC2)cc1 [Pimavanserin, reference compound]", "ED50 at 45 min", 6.79],
  ["CC(C)COc1ccc(CN2Cc3ccc(F)cc3CN(C3CCN(C)CC3)C2=O)cc1 [NH-K-A19005]", "ED50 at 45 min", 20],
  ["CN1CCC(N2Cc3cc(F)ccc3CN(Cc3ccc(OC4CC4)cc3)C2=O)CC1 [NH-K-A19006]", "ED50 at 45 min", 11.9],
  ["CC(C)COc1ccc(CN2Cc3cc(F)ccc3CN(C3CCN(C)CC3)C2=O)cc1 [NH-K-A19001]", "ED50 at 45 min", 3.74]
]}
